test.summary: Cell Viability - LYMP2-012 (AID 982);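 also: cellular ATP by luciferase luminescence where a drop means cytotoxicity; cells exposed to compound for one day before reading; nearly all actives have a fitted effect of over 55% in size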
assay.conditions: LYMP2-012 lymphoblastoid cell viability qHTS; series mostly up to 92.2 µM
Results filed as inconclusive are left out. The source made the active and inactive calls. Calls follow the shape of the dose curve; as a rule, active = well fitted cell-killing curve with a large enough effect; inconclusive = small, poorly fitted or top-dose-only effect; inactive = flat fitted curve, though single readings scatter.
Mark one answer only. Choices: active, inactive

molecule	qualitative.label
Nc1ccc(N=Nc2ccccc2)c(N)c1	inactive
CC(=O)Nc1cccc(C)c1	inactive
O=c1[nH]ncc2ccccc12	inactive
O=[N+]([O-])c1cc(Cl)c(Cl)c(Cl)c1Cl	inactive
CCN(CC)c1ccc2c(C)cc(=O)oc2c1	inactive

q: Dear colleague, could you share the recorded outcome for `COc1ccc(C(=O)Nc2ccccc2)cc1[N+](=O)[O-]` when you have a moment?
a: inactive

q: Same question, C[C@@H]1CC2(OC(O)[C@]3(C)O[C@H]23)O[C@H]2C[C@@]3(C)[C@@H]4CC[C@H]5C(C)(C)C(O[C@@H]6OC[C@@H](O)[C@H](O)[C@H]6O)CC[C@@]56C[C@@]46CC[C@]3(C)[C@@H]12 (some centres not stated) this time
a: active
